Molecular target: site I of HSA (Homo sapiens, UniProt P02768)
Sequence (P02768 25-609): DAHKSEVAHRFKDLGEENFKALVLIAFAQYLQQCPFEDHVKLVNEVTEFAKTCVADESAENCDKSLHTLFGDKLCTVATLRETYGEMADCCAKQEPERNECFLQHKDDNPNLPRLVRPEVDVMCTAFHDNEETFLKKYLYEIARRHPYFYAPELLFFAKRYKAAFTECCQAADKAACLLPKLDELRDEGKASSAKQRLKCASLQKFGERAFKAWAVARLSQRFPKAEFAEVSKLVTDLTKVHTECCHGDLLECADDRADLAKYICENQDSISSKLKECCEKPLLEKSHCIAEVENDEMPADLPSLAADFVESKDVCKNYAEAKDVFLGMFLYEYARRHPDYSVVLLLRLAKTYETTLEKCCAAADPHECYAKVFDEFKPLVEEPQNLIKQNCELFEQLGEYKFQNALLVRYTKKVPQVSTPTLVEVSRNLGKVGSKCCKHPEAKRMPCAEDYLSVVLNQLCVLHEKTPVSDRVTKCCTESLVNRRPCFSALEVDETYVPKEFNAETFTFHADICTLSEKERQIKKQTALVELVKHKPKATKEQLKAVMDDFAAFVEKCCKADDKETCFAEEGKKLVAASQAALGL
Assay: Fluorescence competitive binding assay with site‐selective probe DNSA
Settings: DNSA probe; 100 µM; n = 3, mean ± SE
For each of the molecules below, state its Competitive inhibition rate of the probe binding, Site I.

Hello, please tell me recorded Competitive inhibition rate of the probe binding, Site I for this one: CC(C)=CCc1c(O[C@@H]2O[C@H](C(=O)O)[C@@H](O)[C@H](O)[C@H]2O)cc(O)c2c1OC(c1ccc(O)cc1)CC2=O (stereo partly shown) [8‐PN‐7G, 8‐PN 7‐glucuronide]
37.2 ± 0.6 %

Hello, please tell me recorded Competitive inhibition rate of the probe binding, Site I for this one: O=C1C[C@@H](c2ccc(O)cc2)Oc2cc(O[C@@H]3O[C@H](C(=O)O)[C@@H](O)[C@H](O)[C@H]3O)cc(O)c21 [N7G, naringenin 7‐glucuronide, reference compound]
10.0 ± 3.0%

Hello, please tell me recorded Competitive inhibition rate of the probe binding, Site I for this one: O=C1C[C@@H](c2ccc(O[C@@H]3O[C@H](C(=O)O)[C@@H](O)[C@H](O)[C@H]3O)cc2)Oc2cc(O)cc(O)c21 [N4′G, Naringenin 4′‐glucuronide, reference compound]
5.2 ± 2.8%

Sourced from paper PMC9007292
